# assay-system: noradrenaline reuptake sites (Rattus norvegicus, UniProt Q63380)
# Construct: The membranes are prepared from the frontal cortex of the rat
# Sequence (Q63380 1-617): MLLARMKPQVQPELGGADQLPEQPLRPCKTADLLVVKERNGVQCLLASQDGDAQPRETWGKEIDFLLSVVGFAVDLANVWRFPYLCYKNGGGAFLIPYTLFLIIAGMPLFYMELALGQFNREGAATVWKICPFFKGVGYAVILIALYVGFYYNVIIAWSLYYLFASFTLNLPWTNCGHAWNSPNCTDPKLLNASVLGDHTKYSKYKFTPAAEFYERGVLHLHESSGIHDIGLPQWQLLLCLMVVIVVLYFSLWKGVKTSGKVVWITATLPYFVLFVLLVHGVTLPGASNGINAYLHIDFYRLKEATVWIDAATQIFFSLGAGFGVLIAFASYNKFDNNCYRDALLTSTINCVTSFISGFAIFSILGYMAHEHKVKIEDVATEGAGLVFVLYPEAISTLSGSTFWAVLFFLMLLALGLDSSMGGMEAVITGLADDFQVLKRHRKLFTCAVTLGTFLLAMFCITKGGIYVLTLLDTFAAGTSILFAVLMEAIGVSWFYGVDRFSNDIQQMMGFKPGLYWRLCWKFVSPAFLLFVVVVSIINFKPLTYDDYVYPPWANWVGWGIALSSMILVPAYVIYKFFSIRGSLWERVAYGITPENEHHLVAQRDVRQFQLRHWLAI
# measurement-description: Affinity for noradrenaline reuptake sites in the rat, competition with [3H]-nisoxetine on frontal cortex membranes
# applied-conditions: 2 nM [3H]-nisoxetine, 4 hours at 4° C, pH 7.4
observable: pKi
Numbers only, as −log10 of the molar value.

Report pKi for C1=NC[C@@]2(CC[C@@H]3Cc4ccccc4C[C@H]3C2)N1 (relative stereo) tested on noradrenaline reuptake sites (Rattus norvegicus, UniProt Q63380).
6.70

This collection of values is drawn from patent US6172097A.
